I'd be grateful if you could share measured Dmax for these entries.
system.tested: KRas-G12D (Homo sapiens, UniProt P01116, G12D)
Construct: insert the HiBiT tag onto the N-terminus of one or more of the endogenous KRas alleles; host or cells: AsPC-1 HiBiT-KRasG12D knock-in clone (one tagged allele, two untagged KRasG12D alleles)
Sequence (P01116 1-188 isoform P01116-2 G12D): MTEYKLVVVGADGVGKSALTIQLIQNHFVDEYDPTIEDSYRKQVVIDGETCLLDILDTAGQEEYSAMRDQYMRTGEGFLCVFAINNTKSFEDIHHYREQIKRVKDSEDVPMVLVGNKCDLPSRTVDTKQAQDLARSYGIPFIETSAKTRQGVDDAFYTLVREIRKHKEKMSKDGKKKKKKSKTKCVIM
method.summary: HiBiT Degradation Assay (G12D), AsPC-1 HiBiT-KRasG12D cells, 24 hr
Format: cell-based
assay.setup: ASPC1, AsPC-1 cells, maximum degradation observed
Method: AsPC-1 (CRL-1682) cells were purchased from ATCC and are homozygous for the G12D mutation in KRas. […] AsPC-1 HiBiT-KRasG12D cells were plated at 9000 or 15,000 cells/well in a 384 well plate (Corning #3770). […] Plates were then allowed to equilibrate to RT and fluorescence was measured using a Perkin-Elmer EnVision. After completion of the fluorescence read, the liquid from each well was removed and the cells were washed with PBS. […]

Example entries and their recorded answers appear below.
CCc1cccc2cc(O)cc(-c3ncc4c(C5CC6CCC(C5)N6)nc(OC[C@@H]5C[C@@H](OC6CCN(CC7CCN(c8ccc9c(c8)CN(C8CCC(=O)NC8=O)C9=O)CC7)CC6)CN5C)nc4c3F)c12 (stereo partly drawn) [Compound 71] = > 70%
CCc1cccc2cc(O)cc(-c3ncc4c(N5CC6CCC(C5)N6)nc(OC[C@@]56CCCN5[C@H](COC(=O)N5CCN(c7cccc8c7CN(C7CCC(=O)N(C)C7=O)C8=O)CC5)CC6)nc4c3F)c12 (stereo partly drawn) [Compound 52] = ≤ 25%
C#Cc1c(F)ccc2cc(O)cc(-c3ncc4c(N5CC6CCC(C5)N6)nc(OCCN5CCC(CN6CCC(CN7CCN(c8ccc9c(c8F)CN(C8CCC(=O)NC8=O)C9=O)CC7)CC6)CC5)nc4c3F)c12 (stereo not drawn) [Compound 223] = > 70%
C#Cc1c(F)ccc2cc(O)cc(-c3ncc4c(N5CC6CCC(C5)N6)nc(OC[C@@H]5C[C@@H](OC6CCN(CC7CCN(c8ccc9c(c8F)CN(C8CCC(=O)NC8=O)C9=O)CC7)CC6)CN5C)nc4c3F)c12 (stereo partly drawn) [Compound 122] = > 70%

Working through the 4 molecules below one at a time, give Dmax for each.
1. C#Cc1c(F)ccc2cc(O)cc(-c3ncc4c(N5CC6CCC(C5)N6)nc(OCCN5CCC(CC6CCN(CC7CCN(c8ccc(F)c9c8CN(C8CCC(=O)NC8=O)C9=O)CC7)CC6)CC5)nc4c3F)c12 (stereo not drawn) [Compound 123]
2. CCc1c(F)ccc2cc(O)cc(-c3ncc4c(N5CC6CCC(C5)N6)nc(OCCN5CCC6(CC5)CCN(CC5CCN(c7ccc8c(c7)n(C)c(=O)n8C7CCC(=O)NC7=O)CC5)CC6)nc4c3F)c12 (stereo not drawn) [Compound 171]
3. C#Cc1c(F)ccc2cc(O)cc(-c3ncc4c(N5CC6CCC(C5)N6)nc(OC[C@@H]5CC[C@@H](CN6CCN(c7ccc8c(c7)n(C(C)C)c(=O)n8C7CCC(=O)NC7=O)CC6)N5C)nc4c3F)c12 (stereo partly drawn) [Compound 176]
4. C#Cc1c(F)ccc2cc(O)cc(-c3ccc4c(N5CC6CCC(C5)N6)nc(OCCN5CCC(CC6CCN(CC7CCN(c8ccc9c(c8)n(C)c(=O)n9C8CCC(=O)NC8=O)CC7)CC6)CC5)nc4c3F)c12 (stereo not drawn) [Compound 237]

Found:
["> 70%", "> 70%", "> 70%", "> 70%"]

For reference, reported Dmax for C#Cc1c(F)ccc2cc(O)cc(-c3ncc4c(N5CC6CCC(C5)N6)nc(OCC5(CN6CCN(CC7CCN(c8ccc9c(c8Cl)CN(C8CCC(=O)NC8=O)C9=O)CC7)CC6)CC5)nc4c3F)c12 (stereo not drawn) [Compound 186] stands at > 70%
